# Tested on: 786-0 renal
# measurement notes: NCI-60 one-dose screen, 48 h (100 = growth as untreated, 0 = no growth, -100 = all killed)
# assay setup: 10 µM unless noted
Compounds without any hit were thinned out: in the full panel of roughly 83,000, 20% have a hit. Active and inactive are the calls of the source. How the source made its calls: active means growth percent below 10; inactive means the rest.
measurement label: growth

[[record]]
molecule = "COc1ccc(CN2c3ccccc3Sc3ccccc32)c(F)c1"
subject_of_test = "786-0 renal"
measurement_label = "growth"
readout_value = "42.2% (inactive)"

[[record]]
molecule = "COc1cccc(-c2nc(-c3ccc(NC(=O)C(C)C)cc3)[nH]c2-c2ccnc(Br)c2)c1"
subject_of_test = "786-0 renal"
measurement_label = "growth"
readout_value = "-14.1% (active)"

[[record]]
molecule = "O=[N+]([O-])c1ccc(Oc2nc(Nc3ccc(O[C@H]4CO[C@H]5[C@@H]4OC[C@@H]5O)c(Cl)c3)ncc2F)c(Cl)c1"
subject_of_test = "786-0 renal"
measurement_label = "growth"
readout_value = "21.4% (inactive)"

[[record]]
molecule = "COc1ccc(C2=Nn3c(nnc3-c3cc(Cl)cc(Cl)c3Cl)SC2)cc1"
subject_of_test = "786-0 renal"
measurement_label = "growth"
readout_value = "6.36% (active)"

[[record]]
molecule = "CCOC(=O)c1cnn2c3ccccc3n(S(=O)(=O)c3ccc(OC)cc3)c12"
subject_of_test = "786-0 renal"
measurement_label = "growth"
readout_value = "40.5% (inactive)"

[[record]]
molecule = "C=C1C(=O)O[C@H]2[C@H]1CC/C(COC(=O)C(C)c1ccc(CC(C)C)cc1)=C\\CC[C@@]1(C)O[C@@H]21 (stereo partly drawn)"
subject_of_test = "786-0 renal"
measurement_label = "growth"
readout_value = "-93.4% (active)"

[[record]]
molecule = "COc1ccc(CNC(=O)C(=O)[C@H](Cc2ccccc2)NC(=O)c2[nH]c3ccccc3c(=O)c2C)cc1"
subject_of_test = "786-0 renal"
measurement_label = "growth"
readout_value = "102% (inactive)"


Now turn to the next molecule.
-- ask Suppose we examine the molecule C/C(=N/NC(N)=S)c1sc(Nc2cccc(Cl)c2)nc1C ; what growth value has been reported?
-- reply 84.3% (inactive)
